These measurements were taken from ChEMBL document CHEMBL1201862.

Test system: NCI-H226
experimentalDetails: NCI tumour cell line growth inhibition, 48 h
Active and inactive are the calls of the source. Cut-off read from the data, not from the text of the source: active = GI50 up to about 1.1 µM and inactive = higher.
Labels: yes for active, no for inactive

{"columns": ["molecule", "targetEntity", "labelValue"],
 "data": [
  ["COc1ccc2c(c1)c1c(n2CCN2CCOCC2)-c2ccccc2CC1", "NCI-H226", "no"],
  ["O=C1NC2(CCNCC2)Oc2ccccc21", "NCI-H226", "no"],
  ["CCOC(=O)c1ccc(/N=C2\\SC(=S)N(c3ccc(F)cc3)\\C2=N/c2ccc(C(=O)OCC)cc2)cc1", "NCI-H226", "no"],
  ["CSc1ccc(OCC2OC2O)cc1 (centres undefined)", "NCI-H226", "no"],
  ["COc1cc2c(c3nc4ccccc4nc13)-c1ccc(SC)c(=O)cc1[C@@H](NC(C)=O)CC2", "NCI-H226", "yes"],
  ["CC1(C)CC(=O)c2c(nc3ccc4ccccc4c3c2-c2ccc(NC(=O)CCCC(=O)Nc3ccc(-c4c5c(nc6ccc7ccccc7c46)CC(C)(C)CC5=O)cc3)cc2)C1", "NCI-H226", "no"],
  ["COc1cc2c(cc1OC)C(Cc1ccccc1CCCl)=NCC2", "NCI-H226", "no"],
  ["CC(=O)N1C(CCc2ccccc2)CC(C)(C=O)C1Cc1ccc(O[Si](C(C)C)(C(C)C)C(C)C)cc1 (centres undefined)", "NCI-H226", "no"],
  ["COc1ccc(/C=C(\\C#N)c2nc(N)nc(N3N=C(C)CC3(C)C)n2)c(O)c1", "NCI-H226", "no"],
  ["CCOC(=O)COc1cc(-c2ccccc2F)nc2cc3c(cc12)OCO3", "NCI-H226", "no"],
  ["CSCC[C@@H](NC(=O)[C@H](CC(C)C)NC(=O)C(Cc1cnc[nH]1)NC(=O)CNC(=O)[C@@H](NC(=O)[C@H](C)NC(=O)[C@H](Cc1c[nH]c2ccccc12)NC(=O)[C@H](CCC(N)=O)NC(=O)[C@@H](N)CC(N)=O)C(C)C)C(N)=O (some centres undefined)", "NCI-H226", "no"],
  ["Cc1cc(OCc2nn(CN3CCN(C)CC3)c(=S)n2/N=C/c2ccc(-c3ccc(Cl)cc3Cl)o2)ccc1Cl", "NCI-H226", "no"],
  ["COc1ccc(-c2c3c(n(C4OC(CO)C(O)C(O)C4O)c(=S)c2C#N)CCCC3)cc1 (centres undefined)", "NCI-H226", "no"],
  ["CC1=C(O)C(=O)[C@@H]2O[C@@H]2C1=O", "NCI-H226", "no"],
  ["O=c1oc2ccc(Cl)cc2cc1-c1cn2cc(Cl)ccc2n1", "NCI-H226", "no"],
  ["CC(C)(C)OC(=O)N(CCCCNCc1ccc2ccccc2c1)CCCNCc1ccc2ccccc2c1", "NCI-H226", "no"],
  ["COC(=O)c1ccc(/N=N/N(C)CO)cc1", "NCI-H226", "no"],
  ["CN(C)c1nc(N(C)c2ccccc2)[s+]s1", "NCI-H226", "no"],
  ["Ic1cc2c(cc1C1SCCCS1)OCO2", "NCI-H226", "no"]
]}

* * *

Each entry below lists one item and its recorded GI50 value.
Test system: U-251
experimentalDetails: NCI tumour cell line growth inhibition, 48 h
Calls of active or inactive are those of the source. No stated cut-off is given here; in the data, active = GI50 up to about 1.1 µM and inactive = higher.

{"columns": ["compound", "targetEntity", "GI50"],
 "data": [
  ["CSc1ccc(OCC2OC2O)cc1 (stereo unspecified)", "U-251", "28.6 µM (inactive)"],
  ["O=S(=O)(NC1OCCCC1I)c1ccccc1 (stereo unspecified)", "U-251", "> 100 µM (inactive)"],
  ["COc1cc2c(c(OC)c1OC)-c1ccc(SC)c(=O)cc1[C@@H](NC(=O)c1ccc(C#N)cc1)CC2", "U-251", "< 0.01 µM (active)"],
  ["Cc1ccc(/C=N/n2c(=O)[nH]c3ccccc3c2=O)cc1", "U-251", "> 100 µM (inactive)"],
  ["CCCC(=O)N1CCN(c2ccc3c(c2)OC(C)O3)CC1 (stereo unspecified)", "U-251", "> 100 µM (inactive)"],
  ["O=P1(Oc2ccc(Cl)cc2Cl)Oc2cc3ccccc3cc2O1", "U-251", "81.7 µM (inactive)"],
  ["CC[C@H](CO)Nc1nc(NCc2ccccc2)c2ncn(C(C)C)c2n1", "U-251", "53.8 µM (inactive)"],
  ["CC(=O)N1C(=O)c2cc3ccccc3cc21", "U-251", "> 100 µM (inactive)"],
  ["COc1cc2c(c3nc4ccccc4nc13)-c1ccc(SC)c(=O)cc1[C@@H](NC(C)=O)CC2", "U-251", "0.0345 µM (active)"],
  ["CC(=O)N(CN1C(=O)CCC1C(=O)O)c1ccccc1Cl (stereo unspecified)", "U-251", "> 100 µM (inactive)"],
  ["O=C(O)CCN(CCC(=O)O)c1ccc(/C=C2\\SC(=S)NC2=O)cc1", "U-251", "> 100 µM (inactive)"]
]}
